biological target: sigma receptor; assay: 3-PPP binding (inhibition of (+)-[3H]-3-PPP, a sigma ligand, binding); settings: inhibition of (+)-[3H]-3-PPP binding, method of Largent et al
Structures can show the parent of a compound that is named as a salt.
PROPERTY NAME: pIC50
Answers are plain numbers, as −log10 of the molar value.

Examples from the recorded data:
{"columns": ["COMPOUND", "pIC50"],
 "data": [
  ["CCN1CCSC(c2ccc(OC)cc2)CC1 (centres unmarked)", 8.21],
  ["CN1CCSC(c2ccc(Cl)cc2)CC1 (centres unmarked) [Example 6, hydrochloride]", 6.92],
  ["COc1ccc(C2CCN(C)CCS2)cc1 (centres unmarked) [Example 2, hydrochloride]", 7.78],
  ["COc1ccc(C2CCN(C(C)C)CCS2)cc1 (centres unmarked) [Example 4, hydrochloride]", 8.79]
]}

Moving on to the next compound.
## Input Report its pIC50 with sigma receptor as the test system: COc1ccc(C2CCN(CCCCc3ccncc3)CCS2)cc1 (centres unmarked)
## Output 8.88

---

Assign IC50 to each entry below.
target: sigma receptor; test: 3-PPP binding (inhibition of (+)-[3H]-3-PPP, a sigma ligand, binding); settings: inhibition of (+)-[3H]-3-PPP binding, method of Largent et al
Where a name gives a salt, the structure may show the parent alone.
One number for each entry, in nM.

Examples from the recorded data:
{"columns": ["MOLECULE", "IC50 / nM"],
 "data": [
  ["CCCN1CCSC(c2ccc(Cl)cc2)CC1 (centres unmarked)", 21.3],
  ["c1ccc(C2CCN(CCCCc3cccnc3)CCS2)cc1 (centres unmarked)", 2.5],
  ["Clc1ccc(C2CCN(CCCCc3ccncc3)CCS2)cc1 (centres unmarked)", 2.62],
  ["Cl.c1ccc(C2CCN(CCCCc3ccncc3)CCS2)cc1 (centres unmarked) [Example 14, hydrochloride]", 6.39]
]}

Moving on to the next molecule.
## Input Quote IC50 reported for COc1ccc(C2CCN(CCCC(=O)c3cccnc3)CCS2)cc1 (centres unmarked) [Example 13, dihydrochloride] please.
## Output 9.2

The reported measurements were obtained from patent US5206233A.
